TEST_READOUT: melting point

Guide cases for melting point, answers given:
[[record]]
molecule = "CC(C)(NS(=O)(=O)c1ccc(OCCC2CCCC2)cc1)C(=O)NO [Example 12]"
value_observed = "126 to 127 °C"

[[record]]
molecule = "CC(C)CCOc1ccc(S(=O)(=O)NC(C)(C)C(=O)NO)cc1 [Example 11]"
value_observed = "126.5 to 128 °C"

[[record]]
molecule = "O=C(NO)C1(NS(=O)(=O)c2ccc(Oc3ccc(F)cc3)cc2)CCCCC1 [Example 4]"
value_observed = "174 °C"

[[record]]
molecule = "O=C(NO)C1(NS(=O)(=O)c2ccc(Oc3ccc(F)cc3)cc2)CC1 [Example 5]"
value_observed = "184 °C"

[[record]]
molecule = "COc1ccc(S(=O)(=O)NC(C)(C)C(=O)NO)cc1 [Example 9]"
value_observed = "122 to 125 °C"


Turning now to a further molecule:
q: Quick one: melting point for CC(C)(NS(=O)(=O)c1ccc(-c2ccccn2)s1)C(=O)NO [Example 13] ?
a: 165 to 166 °C
